assay: 7-day mouse toxicology study: toxicokinetics (plasma, brain, CSF), 30 mg/kg/day PO; type: in vivo, male C57BL/6 mice; details: male, C57BL/6, mouse, plasma, po, 30 mg/kg, Day 1, Plasma, 30 mg/kg PO
VALUE_KIND: Tmax (min)
Numbers only, in min.

Problem: Which Tmax value belongs to Cc1cccnc1[C@@H]1CCC[C@H](c2nc3cccc(N4CCN(C)CC4)c3[nH]2)N1C (racemic) [I-3] ?
Result: 30

----------
Experiment: in vitro
Settings: human, Caco-2, pH 7.4
Protocol: Example 37: Caco-2 Permeability Assay The goal of this assay was to evaluate the intestinal absorption potential of drug candidates using Caco-2 cell lines. HBSS buffer with 0.3% DMSO and 5 μM LY: add 150 μL DMSO and 50 μL LY (5 mM) into 50 ml HBSS buffer (pH 7.4). HBSS buffer with 0.1% DMSO and 5 μM LY: add 50 μL DMSO and 50 μL LY (5 mM) into 50 mL HBSS buffer (pH 7.4). […] 1. Papp values were calculated based on calculated concentrations. […]
Please provide measured efflux ratio at 90 min, 10 μM for the entries that follow.

A selection of reference data follows.
COMPOUND	VAL
CN1CCN(c2cccc3nc([C@H]4CCC[C@@H](c5nccn6cccc56)N4C)[nH]c23)CC1 (stereo in doubt)	0.1 to 10
Cc1cccnc1[C@@H]1CCC[C@H](c2nc3cccc(C4CCN(C)CC4)c3[nH]2)N1C	0.1 to 10
Cc1cccnc1[C@@H]1CCC[C@H](c2nc3ccccc3n2CCCCN2CCOCC2)N1C	0.1 to 10

Each of the following entries comes with a recorded value; kindly state efflux ratio at 90 min, 10 μM for each.
1. Cc1cccnc1[C@@H]1CCC[C@H](c2nc3cccc(N4CC5CCC(C4)N5C)c3[nH]2)N1
2. Cc1cccnc1[C@@H]1CCC[C@H](c2nc3ccccc3[nH]2)N1Cc1ccccc1-n1cccn1

Result:
1: 10 to 30; 2: 0.1 to 10
